TARGET DESC: Tyrosine-protein kinase Yes (Homo sapiens)
METHOD: qHTS for small molecule inhibitors of Yes1 kinase: Primary Screen (AID 686947); also: nearly all actives have a fitted effect of over 60% in size
CONDITION INFO: Yes1 kinase biochemical qHTS inhibition; series mostly up to 76.9 µM
Source text: The Src family of non-receptor protein tyrosine kinases contains nine members, including Yes1, Src, Fyn, Lyn, and […]. These kinases have important roles in a variety of cellular functions, such as cell proliferation, survival, and differentiation. Src, the most well characterized member of this family, has been previously identified as a proto-oncogene. […] In melanoma, it has been shown that Yes1, and not other family members, such as Src, is functionally involved in the malignant phenotype. […]
Inconclusive results are not listed. Activity calls are given as the source filed them. Calls follow the shape of the dose curve; as a rule, active = well fitted inhibition curve with a large enough effect; inconclusive = small, poorly fitted or top-dose-only effect; inactive = no such curve, though single readings can be large or run the other way.
Classes used: true = active, false = inactive

CCC=CC[C@H]1C(=O)CC[C@@H]1CC(=O)OC	false
CCCCn1c(=O)n(Cc2ccccc2F)c(=O)c2[nH]c(Cc3ccc(NC(C)=O)cc3)nc21	false
COc1ccc2c(c1)CC[C@H]1[C@@H]2CC[C@]2(C)[C@@H](NCCCCCCN3C(=O)C=CC3=O)CC[C@H]12	false
Cc1csc(-c2nnc(Nc3ccc(Oc4ncccc4-c4ccnc(N)n4)cc3)c3ccccc23)c1	false
NC(=O)c1ccc(N(C(N)=O)c2c(F)cccc2F)nc1-c1ccc(F)cc1F	false
CC(O)=C(C#N)C(=O)Nc1ccc(C(F)(F)F)cc1	false
CCC(=O)N1CCN(c2ccc(-n3c(=O)ccc4cnc5ccc(-c6cnc7ccccc7c6)cc5c43)cc2C(F)(F)F)CC1	false
Cc1cccc(Nc2nc(N[C@@H]3CCCC[C@H]3N)ncc2C(N)=O)c1	true
CC(C)C[C@@H](C(=O)N[C@H](C(=O)OC1CCCC1)c1ccccc1)[C@H](O)C(=O)NO	false
COc1cc2c(cc1OC)CC(=O)N(CCCN(C)C[C@H]1Cc3cc(OC)c(OC)cc31)CC2	false
CNC(=O)c1cc(COc2nnc(Nc3ccc(Cl)cc3)c3ccoc23)ccn1	false
CC(C)(C)c1[nH]cnc1C=c1[nH]c(=O)c(=Cc2ccccc2)[nH]c1=O	false
O=C1C(CCC(O)c2ccc(F)cc2)C(c2ccc(O)cc2)N1c1ccc(F)cc1 (centres undefined)	false
O=C1Nc2ccc(I)cc2C1=Cc1cc(Br)c(O)c(Br)c1	true
Cc1ccc(NC(=O)c2ccc(CN3CCN(C)CC3)cc2)cc1Nc1nc(-c2cccnc2)cs1	true
Cc1ccc(C(=O)N(CCCN)[C@@H](c2nc3cc(Cl)ccc3c(=O)n2Cc2ccccc2)C(C)C)cc1	false
CCOC(=O)[C@@H](N)CCC(=O)N[C@@H](CSCc1ccccc1)C(=O)N[C@@H](C(=O)OCC)c1ccccc1	false
COc1cc2ncn(-c3cc(OCc4ccccc4S(C)(=O)=O)c(C#N)s3)c2cc1OC	true
Nc1ccc(-c2ccc3ncc4ccc(=O)n(-c5cccc(C(F)(F)F)c5)c4c3c2)cn1	true

---

METHOD: Quantitative High-Throughput drug screen in 47 multiple myeloma cell lines against the NCATS MIPE library collection: PCM6_Riken cell viability assay (AID 1919870); also: nearly all actives have a fitted effect of over 30% in size
CONDITION INFO: CellTiter-Glo ATP, 48 h; series mostly up to 45.8 µM
Records with an inconclusive call do not appear. Active and inactive are the calls of the source. Calls come from the whole dose curve; as a rule, active = well fitted cell-killing curve with a large enough effect; inconclusive = small, poorly fitted or top-dose-only effect, or effect the other way; inactive = no such curve, though single readings can be large or run the other way.
Classes used: active, inactive

CC(=O)OCC(=O)[C@@]12OC(C)(C)O[C@H]1C[C@H]1[C@@H]3C[C@H](F)C4=CC(=O)C=C[C@]4(C)[C@@]3(F)[C@@H](O)C[C@@]12C	inactive
CCCCCCCCCCCCCC(=O)N[C@H](CO)[C@H](O)c1ccc([N+](=O)[O-])cc1	active
O=C(NC[C@H](O)CO)c1ccncc1Nc1ccc(I)cc1F	active
CCC(=C(c1ccc(O)cc1)c1ccc(OCCNC)cc1)c1ccccc1	active
C[C@@H]1CC=CC=CC=CC=C[C@@H](O[C@@H]2O[C@H](C)[C@@H](O)[C@H](N)[C@H]2O)C[C@@H]2O[C@](O)(C[C@@H](O)C[C@@H]3O[C@@H]3C=CC(=O)O1)C[C@H](O)[C@@H]2C(=O)O	active
C[C@@H]1C[C@H]2[C@@H]3CCC4=CC(=O)C=C[C@]4(C)[C@@]3(F)[C@@H](O)C[C@]2(C)[C@@]1(O)C(=O)CO	inactive
CC(NCCc1ccc(O)cc1)C(O)c1ccc(O)cc1 (configuration not stated)	inactive
Cc1ccc(C2=Nc3ccc(Cl)cc3OC2)cc1	active
CC(C)(OCc1nn(Cc2ccccc2)c2ccccc12)C(=O)O	inactive
Cc1cccc(Nc2nc(N[C@@H]3CCCC[C@H]3N)ncc2C(N)=O)c1	active
CC(C)C[C@H](NC(=O)c1cc2ccccc2s1)C(=O)N1CCN(C(=O)[C@H](CO)NS(=O)(=O)c2ccc(Cl)cc2Cl)CC1	active
CN(C)CC[C@H](CSc1ccccc1)Nc1ccc(S(=O)(=O)NC(=O)c2ccc(N3CCN(Cc4ccccc4-c4ccc(Cl)cc4)CC3)cc2)cc1[N+](=O)[O-]	active
Cc1[nH]c(C=C2C(=O)Nc3ccc(S(=O)(=O)N(C)c4cccc(Cl)c4)cc32)c(C)c1C(=O)N1CCN(C)CC1	active
N[C@@H](CC(=O)N1CCn2c(nnc2C(F)(F)F)C1)Cc1cc(F)c(F)cc1F	inactive
COc1ccc2nc3cc(Cl)ccc3c(Nc3cc(CN4CCCC4)c(O)c(CN4CCCC4)c3)c2n1	active
CSc1cccc(Nc2ncc3cc(-c4c(Cl)cccc4Cl)c(=O)n(C)c3n2)c1	active
CN1CCc2c(n(Cc3ccc(C(=O)NO)cc3)c3ccccc23)C1	active
